- Target: SARS-CoV spike RBD (R306-F527), C-terminal 6-His (SARS-CoV, UniProt P59594 306-527)
- Procedure text: flow cytometry, blocking of binding to hACE-2 cells

| Binder | Unit annotation | percent blocking |
| --- | --- | --- |
| 1035433 (antibody, V domains shown) VH: QVQLQQSGPQLVRPGASVKISCKASGYSFTIYWMHWVQQRPGQGLEWIGMIDPSDSETRLNQKFKDKATLTVDKSSSTAYMQLSSPTSEDSAVYYCARRGDYNFDYWGQGTTLTVSS VL: DIVMTQAAPSVPATPGESVSISCRSSKSLLHSNGNTYLYWFLQRPGQSPQLLIFRMSNLASGVPDRFSGSGSGTAFTLRISRVEAEDVGVYYCMQHLEYPYTFGGGTKLEIK | % | 0 |
| 1035740 (antibody, V domains shown) VH: EVLLQQSGPELVKPGASVKIPCKASGYTFTDYNMDWVKQSHGKSLEWIGDINPNNGFTIYNQKFKGKATLTVDKSSSTAYMELRSLTSEDTAVYYCAREGYGNYFDYWGQGTTLTVSS VL: DVLLTQSPAILSVSPGERVSFSCRASQSIGTSLHWYQQRTNGSPRLLIKYVSESISGIPSRFSGSGSGTDFTLSINSVESEDIADYYCQQSSSWPTTFGAGTKLELK | % | 98.8 |

These entries and their values trace back to patent US20230408517A1.
